# protocol summary: Cytotoxicity against human LNCAP cells assessed as cell viability after 3 days by MTS assay
# Format: cell-based
# assay conditions: read-out: LD50
Please provide measured CC50 at 72 h for the entries that follow.

Qu. May I ask what CC50 at 72 h has been recorded for `Cc1ccc(OCCn2c(SCCC(=O)O)nc3ccccc32)cc1` ?
Ans. > 100 µM

Qu. # get_value(readout='CC50 at 72 h', item= `COC(=O)c1ccc([C@H]2Nc3ccc(C(C)=O)cc3[C@H]3C=CC[C@H]32)cc1` )
Ans. > 100 µM

Qu. What does the data say about its CC50 at 72 h? Entry: `CCOC(=O)c1ccc2c(c1)[C@H]1C=CC[C@@H]1[C@@H](c1ccccc1)N2`
Ans. > 100 µM

Qu. Look up CC50 at 72 h: `O=C(CSc1nc(O)c2ccccc2n1)c1ccc(O)c(O)c1`
Ans. > 50 µM

Qu. What measured CC50 at 72 h goes with `NS(=O)(=O)c1ccc2c(c1)[C@@H]1C=CC[C@@H]1[C@@H](c1ccc(Br)cc1)N2` ?
Ans. 50 µM

Qu. Form field: reported CC50 at 72 h of `Cc1ccc(OCCn2c(SCCOc3ccccc3)nc3ccccc32)cc1`
Ans. > 100 µM

Qu. I'd like to know its CC50 at 72 h. The compound in question is `O=C(O)c1cccc(CSc2ccc(Cl)cc2Cl)c1`
Ans. > 100 µM

Qu. Please report the recorded CC50 at 72 h for `Cc1cc(/C=C/C(=O)O)c(C)n1-c1ccc2c(c1)OCO2` .
Ans. > 100 µM

// provenance: ChEMBL document CHEMBL1921777
